biological target: D(2) dopamine receptor (Homo sapiens, UniProt P14416); format: cell-based, CHO
Sequence (P14416 whole entry): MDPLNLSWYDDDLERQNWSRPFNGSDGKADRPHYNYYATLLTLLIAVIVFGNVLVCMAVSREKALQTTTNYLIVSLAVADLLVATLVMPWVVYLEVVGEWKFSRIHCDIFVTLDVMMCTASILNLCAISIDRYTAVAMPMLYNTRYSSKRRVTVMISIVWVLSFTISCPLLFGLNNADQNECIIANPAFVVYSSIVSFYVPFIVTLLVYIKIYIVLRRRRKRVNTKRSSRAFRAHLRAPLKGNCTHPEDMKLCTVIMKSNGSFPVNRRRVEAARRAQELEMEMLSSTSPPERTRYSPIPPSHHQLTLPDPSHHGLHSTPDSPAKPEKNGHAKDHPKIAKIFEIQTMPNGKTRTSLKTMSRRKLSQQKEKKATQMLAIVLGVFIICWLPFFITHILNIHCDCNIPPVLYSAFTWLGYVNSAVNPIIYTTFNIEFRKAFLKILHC
Description: High inhibition constant against [3H]spiperone binding to human Dopamine receptor D2L expressed in CHO cells
Please respond with reported Ki for every item in the list.
Record the value in µM, omitting the unit from your answer.

Q) Please give the measured Ki for this compound: `CCCN(CCC)[C@H]1CCn2c(C#N)ccc2C1`
A) 0.19

Q) Please give the measured Ki for this compound: `CCCN(CCC)[C@H]1CCn2c(C=O)ccc2C1`
A) 0.052
